Biological target: T1, rhesus monkey CD22-ECD-His protein (rhesus monkey, UniProt H9G1X2 18-686)
T1 construct: extracellular domain; also called monkey CD22 protein
T1 sequence: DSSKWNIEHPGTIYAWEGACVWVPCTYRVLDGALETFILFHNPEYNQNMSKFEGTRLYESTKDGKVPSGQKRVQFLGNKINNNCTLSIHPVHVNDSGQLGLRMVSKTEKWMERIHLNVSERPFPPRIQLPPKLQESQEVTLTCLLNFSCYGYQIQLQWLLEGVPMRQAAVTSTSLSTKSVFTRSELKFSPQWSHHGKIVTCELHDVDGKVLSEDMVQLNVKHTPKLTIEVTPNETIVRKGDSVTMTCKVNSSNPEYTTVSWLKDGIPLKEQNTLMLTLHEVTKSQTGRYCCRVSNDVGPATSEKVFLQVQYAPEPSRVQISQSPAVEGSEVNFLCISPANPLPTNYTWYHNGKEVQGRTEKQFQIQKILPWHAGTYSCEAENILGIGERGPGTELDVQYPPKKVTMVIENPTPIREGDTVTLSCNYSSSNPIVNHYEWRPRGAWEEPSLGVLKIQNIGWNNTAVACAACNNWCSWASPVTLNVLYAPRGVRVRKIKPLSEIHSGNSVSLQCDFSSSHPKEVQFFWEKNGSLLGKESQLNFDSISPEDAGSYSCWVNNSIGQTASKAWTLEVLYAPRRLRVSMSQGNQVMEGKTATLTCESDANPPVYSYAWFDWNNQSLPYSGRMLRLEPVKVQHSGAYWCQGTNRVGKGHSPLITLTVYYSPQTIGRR
Test: SPR (Biacore), antibody captured on Protein A chip, rhesus CD22 in solution
# kon listing for each entry below
Lab book: enter the figure in M⁻¹ s⁻¹, no units written.

Use these answered entries as a reference point.
| Binder | kon / M⁻¹ s⁻¹ |
| --- | --- |
| F1.192.1 (antibody, human IgG1, kappa, V domains shown, Chimeric IgG1 kappa) VH: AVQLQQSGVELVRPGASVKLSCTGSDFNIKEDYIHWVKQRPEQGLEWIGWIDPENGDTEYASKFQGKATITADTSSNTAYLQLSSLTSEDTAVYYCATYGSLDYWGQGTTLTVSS VL: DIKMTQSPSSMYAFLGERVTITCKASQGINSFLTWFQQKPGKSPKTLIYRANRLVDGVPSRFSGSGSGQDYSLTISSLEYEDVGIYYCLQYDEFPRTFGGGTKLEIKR | 69200 |
| F2.151.13 (antibody, human IgG1, lambda, V domains shown, Chimeric IgG1 lambda) VH: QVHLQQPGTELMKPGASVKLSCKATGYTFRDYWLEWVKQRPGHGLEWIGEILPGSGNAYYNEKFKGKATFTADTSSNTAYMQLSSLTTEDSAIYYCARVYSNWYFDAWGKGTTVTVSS VL: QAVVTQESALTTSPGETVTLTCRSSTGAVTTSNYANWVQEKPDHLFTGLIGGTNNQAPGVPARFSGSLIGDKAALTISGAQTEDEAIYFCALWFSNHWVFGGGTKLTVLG | 19200 |
| F1.267.9 (antibody, human IgG1, kappa, V domains shown, Chimeric IgG1 kappa) VH: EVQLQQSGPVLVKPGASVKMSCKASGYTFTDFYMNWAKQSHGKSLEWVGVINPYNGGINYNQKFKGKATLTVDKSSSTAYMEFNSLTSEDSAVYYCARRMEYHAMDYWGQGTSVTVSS VL: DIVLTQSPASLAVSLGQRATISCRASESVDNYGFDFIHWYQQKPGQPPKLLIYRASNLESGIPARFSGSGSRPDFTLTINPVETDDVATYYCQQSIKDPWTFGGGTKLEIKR | 26700 |

Query: Could you share which kon value was measured for F1.172.13 (antibody, human IgG1, kappa, V domains shown, Chimeric IgG1 kappa) VH: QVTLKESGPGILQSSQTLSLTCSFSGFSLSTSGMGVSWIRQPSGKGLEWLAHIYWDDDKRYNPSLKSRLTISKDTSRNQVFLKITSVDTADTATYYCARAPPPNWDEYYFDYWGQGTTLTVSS VL: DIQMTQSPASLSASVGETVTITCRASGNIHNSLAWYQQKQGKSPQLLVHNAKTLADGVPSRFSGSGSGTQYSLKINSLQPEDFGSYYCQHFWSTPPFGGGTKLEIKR ?
Response: 200000

Query: Could you share which kon value was measured for HA22-hIgG1 (antibody, V domains shown) VH: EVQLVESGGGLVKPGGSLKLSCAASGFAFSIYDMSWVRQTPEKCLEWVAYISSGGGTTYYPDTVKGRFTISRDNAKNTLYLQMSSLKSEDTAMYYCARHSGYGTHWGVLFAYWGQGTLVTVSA VL: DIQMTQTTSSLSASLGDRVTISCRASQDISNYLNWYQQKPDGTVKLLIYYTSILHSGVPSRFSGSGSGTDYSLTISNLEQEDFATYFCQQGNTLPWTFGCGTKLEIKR ?
Response: 68600

Provenance of the data: patent US20240084003A1
